Please go through the items and note down their kcat.
# Substrate: O=C(/C=C/c1ccc(O)cc1)c1ccc(O)cc1O
# experiment: purified protein
Form entry: value (min⁻¹) — number only.

Sample MsCHI-2 (Medicago sativa; K97M) (protein) MAASITAITVENLEYPAVVTSPVTGKSYFLGGAGERGLTIEGNFIKFTAIGVYLEDIAVASLAAKWKGKSSEELLETLDFYRDIISGPFEKLIRGSMIRELSGPEYSRKVMENCVAHLKSVGTYGDAEAEAMQKFAEAFKPVNFPPGASVFYRQSPDGILGLSFSPDTSIPEKEAALIENKAVSSAVLETMIGEHAVSPDLKRCLAARLPALLNEGAFKIGN ; kcat observed: 658

Sample MsCHI-2 (Medicago sativa; G95V) (protein) MAASITAITVENLEYPAVVTSPVTGKSYFLGGAGERGLTIEGNFIKFTAIGVYLEDIAVASLAAKWKGKSSEELLETLDFYRDIISGPFEKLIRVSKIRELSGPEYSRKVMENCVAHLKSVGTYGDAEAEAMQKFAEAFKPVNFPPGASVFYRQSPDGILGLSFSPDTSIPEKEAALIENKAVSSAVLETMIGEHAVSPDLKRCLAARLPALLNEGAFKIGN ; kcat observed: 2.16

Sample AtCHI-1 (Arabidopsis thaliana) (protein) MSSSNACASPSPFPAVTKLHVDSVTFVPSVKSPASSNPLFLGGAGVRGLDIQGKFVIFTVIGVYLEGNAVPSLSVKWKGKTTEELTESIPFFREIVTGAFEKFIKVTMKLPLTGQQYSEKVTENCVAIWKQLGLYTDCEAKAVEKFLEIFKEETFPPGSSILFALSPTGSLTVAFSKDDSIPETGIAVIENKLLAEAVLESIIGKNGVSPGTRLSVAERLSQLMMKNKDEKEVSDHSVEEKLAKEN ; kcat observed: 0.064
